meta.source: ChEMBL document CHEMBL1201862

GI50 by entry:
Test system: HCC 2998
RUN_DESCRIPTION: NCI tumour cell line growth inhibition, 48 h
Active and inactive are the calls of the source. Cut-off read from the data, not from the text of the source: active = GI50 up to about 1.1 µM and inactive = higher. Where a SMILES comes first, the peptide text is derived from it. [ ]: non-standard residue; d: D form. The star is where a group is joined. Hyp = O=C(O)[CH]1C[CH](O)CN1; Cbz = O=C(OCc1ccccc1)*

The following molecules have reported results that may help.
NC(=O)CNC(=O)C1CC(O)CN1C(=O)C1CCCN1C(=O)OCc1ccccc1 (stereo not drawn) (Cbz-Pro-[Hyp]-Gly-NH2; configuration not given here) ... > 100 µM (inactive)
CCOC(=O)C1=CC(C)(C(=O)OCC)Nc2c(nc(SC)[nH]c2=O)N1 (stereo unspecified) ... > 10 µM (inactive)
COc1cc(O)c2c(=O)c(OC)c(-c3ccc4c(c3)OCO4)oc2c1OC ... > 50 µM (inactive)
CCOP1(=O)C=CC(Cl)=C(C)C1 (stereo unspecified) ... 15.9 µM (inactive)
CC1(C)OC(CP(c2ccccc2)c2ccccc2)C(CP(c2ccccc2)c2ccccc2)O1 (stereo unspecified) ... 0.774 µM (active)

Q: Please look up its GI50: Cc1cc2nc3c(C(OC4OC(CO)C(O)C(O)C4O)C(O)CO)nn(-c4ccccc4)c3nc2cc1C (stereo unspecified)
A: > 100 µM (inactive)

Q: // returns reported GI50 for input Cc1c2cnccc2c(C)c2c1c1ccccc1n2CC1CO1 (stereo unspecified)
A: 1.18 µM (inactive)

Q: Returns the measured GI50 for the input molecule. Input: `C=CCn1c2c(c3ccccc3c1=O)C(=O)c1ccccc1-2`
A: > 100 µM (inactive)

Q: // GI50 lookup, key: `CCCCNC(=S)Nc1nc(C(=O)NNC(=O)c2ccccc2)cs1`
A: 13.7 µM (inactive)

Q: Can you share its GI50? I mean this molecule: `COc1ccc(/C=C/C(=O)c2ccc(OC(=O)/C=C/c3ccccc3)cc2)cc1`
A: 16.2 µM (inactive)

Q: Entry `CC1=COC(=O)c2ccccc2N1` has what GI50?
A: > 100 µM (inactive)
